experimental_system: Mu-type opioid receptor (Cavia porcellus, UniProt P97266)
Sequence (P97266 whole entry): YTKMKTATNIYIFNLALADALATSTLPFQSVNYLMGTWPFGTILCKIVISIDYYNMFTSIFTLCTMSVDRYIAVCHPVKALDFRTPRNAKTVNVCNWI
protocol_notes: Agonistic activity for Opioid receptor mu 1 as inhibitory activity towards electrically stimulated guinea pig ileum
Listed here: items and their measured log10(IC50).
Units before log transform: µM; reported quantity: IC50; transform: log10.

Consider the following illustrative entries.
query: Which measured log10(IC50) value corresponds to "CN1CC[C@]2(c3cccc(O)c3)C[C@H]1Cc1[nH]c3ccccc3c12" ?
result: 0.37

query: Endpoint output: log10(IC50) of COc1ccc2c3c([nH]c2c1)CC1CC3(c2cccc(O)c2)CCN1C (racemic) . Value?
result: -0.06

query: Give the measured log10(IC50) of COc1cccc2c3c([nH]c12)CC1CC3(c2cccc(O)c2)CCN1C (racemic) .
result: 0.29

New cases:
query: Given COc1ccc2[nH]c3c(c2c1)C1(c2cccc(O)c2)CCN(C)C(C3)C1 (racemic) , state its recorded log10(IC50).
result: 0.83

query: Recorded log10(IC50) of COc1cccc2c3c([nH]c12)CC1CC3(c2cccc(O)c2)CCN1C (single isomer, unassigned; (-)) , please.
result: 0.46

query: log10(IC50) for COc1ccc2[nH]c3c(c2c1)C1(c2cccc(O)c2)CCN(C)C(C3)C1 (stereo in doubt; (-)-11) ?
result: 1.41

query: Fill blank: measured log10(IC50) of the molecule "C=CCN1C[C@H](C)N([C@H](c2ccc(C(=O)N(CC)CC)cc2)c2cccc(OC)c2)C[C@H]1C" is ____.
result: 0.74

* * *

experimental_system: UniProt:P33535
Sequence (P33535 whole entry): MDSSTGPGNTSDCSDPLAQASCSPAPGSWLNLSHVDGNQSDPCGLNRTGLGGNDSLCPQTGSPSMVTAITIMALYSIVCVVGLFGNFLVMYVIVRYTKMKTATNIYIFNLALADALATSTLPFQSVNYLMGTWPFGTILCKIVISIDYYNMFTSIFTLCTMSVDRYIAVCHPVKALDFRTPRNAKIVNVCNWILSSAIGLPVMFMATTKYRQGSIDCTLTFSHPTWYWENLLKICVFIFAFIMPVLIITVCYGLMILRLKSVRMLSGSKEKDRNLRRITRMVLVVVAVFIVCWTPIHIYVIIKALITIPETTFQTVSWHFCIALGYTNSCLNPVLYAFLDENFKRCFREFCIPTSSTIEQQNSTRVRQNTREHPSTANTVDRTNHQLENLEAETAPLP
protocol_notes: Inhibition of [3H]- DAMGO binding to Rat brain Opioid receptor mu 1
Catalogue of IC50 readings, one per entry.
Provide the reading as a plain figure in nM.

# count of solved cases: 3
query: Data request, read-out IC50, for COc1cccc2c3c([nH]c12)CC1CC3(c2cccc(O)c2)CCN1C (racemic)
result: 28.8

query: Suppose we examine the compound COc1ccc2c3c([nH]c2c1)CC1CC3(c2cccc(O)c2)CCN1C (racemic) ; what IC50 value has been reported?
result: 48.4

query: Would you mind telling me what IC50 value was observed for COc1cccc2c3c([nH]c12)CC1CC3(c2cccc(O)c2)CCN1C (single isomer, unassigned; (-)) ?
result: 29.4

Others:
query: I would be grateful if you could share the reported IC50 for COc1ccc2[nH]c3c(c2c1)C1(c2cccc(O)c2)CCN(C)C(C3)C1 (racemic) .
result: 24.2

query: So what's the measured IC50 for this one? "COc1ccc2c3c([nH]c2c1)C[C@@H]1C[C@@]3(c2cccc(O)c2)CCN1C"
result: 66.4

query: Look up IC50: COc1ccc2[nH]c3c(c2c1)C1(c2cccc(O)c2)CCN(C)C(C3)C1 (stereo in doubt; (-)-11)
result: 474

query: Fill in: IC50 of C=CCN1C[C@H](C)N([C@H](c2ccc(C(=O)N(CC)CC)cc2)c2cccc(OC)c2)C[C@H]1C [SNC-80] is ___
result: 2470

* * *

experimental_system: UniProtKB P33535
protocol_notes: Compound was evaluated for Inhibition of Radio Ligand binding of [3H]- DAMGO at Rat brain Opioid receptor mu 1 binding site
readout_name: IC50

query: Field: IC50 (UniProtKB P33535). Entry: "CN1CC[C@]2(c3cccc(O)c3)C[C@H]1Cc1[nH]c3ccccc3c12"
result: 14.2 nM

From: ChEMBL document CHEMBL1129071
